test: Plasma protein binding; assay type: in vitro ADME; details: male, CD-1, mouse, pH 7.4, Mean fu (fraction unbound), 37 °C
measuredProperty: fraction unbound at 4 h, 2 μM
The response must contain the number and no unit.

Provide only the value of recorded fraction unbound at 4 h, 2 μM for C1CCc2c(c(N3CCOCC3)nc3sc4c(N5CCNCC5)nnnc4c23)C1 [UNC10201652]
0.0648

* * *

assay: Mouse pharmacokinetic study; format: in vivo, Swiss albino mice; conditions: male, Swiss albino, mouse, plasma, po, 3 mg/kg, Tmax, mice, PO 3 mg/kg
measuredProperty: Tmax (min)
Give a bare numeral; the unit min is implied.

Provide only the value of recorded Tmax for C1CCc2c(c(N3CCOCC3)nc3sc4c(N5CCNCC5)nnnc4c23)C1
15

* * *

experiment: Hepatocyte metabolic stability; settings: ICR/CD-1, mouse, hepatocytes
measuredProperty: half-life at 1 μM (min)
Give a bare numeral; the unit min is implied.

Provide only the value of recorded half-life at 1 μM for C1CCc2c(c(N3CCOCC3)nc3sc4c(N5CCNCC5)nnnc4c23)C1 [UNC10201652]
11.9

* * *

assay: Liver microsomal metabolic stability; type: in vitro ADME, rat; conditions: Sprague Dawley, rat, liver microsomes, pH 7.4
measuredProperty: half-life at 1 μM (min)
Give a bare numeral; the unit min is implied.

Provide only the value of recorded half-life at 1 μM for C1CCc2c(c(N3CCOCC3)nc3sc4c(N5CCNCC5)nnnc4c23)C1 [UNC10201652]
7.14

* * *

test: Mouse pharmacokinetic study; type: in vivo, Swiss albino mice; settings: male, Swiss albino, mouse, plasma, iv, 3 mg/kg, AUCINF, mice, IV 3 mg/kg
measuredProperty: AUC(0-inf) (ng·h/mL)
Give a bare numeral; the unit ng·h/mL is implied.

Provide only the value of recorded AUC(0-inf) for C1CCc2c(c(N3CCOCC3)nc3sc4c(N5CCNCC5)nnnc4c23)C1 [UNC10201652]
154

* * *

assay: Liver microsomal binding; format: in vitro ADME; conditions: ICR/CD-1, mouse, liver microsomes, pH 7.4
measuredProperty: fraction unbound at 4 h, 2 μM
The response must contain the number and no unit.

Provide only the value of recorded fraction unbound at 4 h, 2 μM for C1CCc2c(c(N3CCOCC3)nc3sc4c(N5CCNCC5)nnnc4c23)C1
0.453

* * *

test: Liver microsomal binding; type: in vitro ADME; conditions: Sprague Dawley, rat, liver microsomes, pH 7.4
measuredProperty: fraction unbound at 4 h, 2 μM
The response must contain the number and no unit.

Provide only the value of recorded fraction unbound at 4 h, 2 μM for C1CCc2c(c(N3CCOCC3)nc3sc4c(N5CCNCC5)nnnc4c23)C1
0.618

* * *

test: Caco-2 bidirectional permeability; settings: human, Caco-2, pH 7.4
measuredProperty: efflux ratio at 120 min, 10 μM

Provide only the value of recorded efflux ratio at 120 min, 10 μM for C1CCc2c(c(N3CCOCC3)nc3sc4c(N5CCNCC5)nnnc4c23)C1
2.7

* * *

experiment: Hepatocyte metabolic stability; settings: Sprague Dawley, rat, hepatocytes
measuredProperty: hepatocyte CLint at 1 μM (µL/min/1e6 cells)
Give a bare numeral; the unit µL/min/1e6 cells is implied.

Provide only the value of recorded hepatocyte CLint at 1 μM for C1CCc2c(c(N3CCOCC3)nc3sc4c(N5CCNCC5)nnnc4c23)C1 [UNC10201652]
140

* * *

test: Liver microsomal metabolic stability; type: in vitro ADME, mouse; conditions: ICR/CD-1, mouse, liver microsomes, pH 7.4
measuredProperty: half-life at 1 μM (min)
Give a bare numeral; the unit min is implied.

Provide only the value of recorded half-life at 1 μM for C1CCc2c(c(N3CCOCC3)nc3sc4c(N5CCNCC5)nnnc4c23)C1
12
